System: uninfected cells
measure name: CD50 (µm)

[
  {
    "compound smiles": "O=[N+]([O-])c1cc([N+](=O)[O-])c(Cl)c(S(=O)(=O)O)c1",
    "value operator": ">",
    "data value": 200
  },
  {
    "compound smiles": "Nc1c([N+](=O)[O-])cc(S(=O)(=O)O)cc1[N+](=O)[O-]",
    "value operator": "=",
    "data value": 100
  },
  {
    "compound smiles": "O=C(O)c1cc([N+](=O)[O-])c(Cl)c([N+](=O)[O-])c1",
    "value operator": "=",
    "data value": 70
  }
]

---

Experiment: in vitro
Conditions: CC50 (Toxicity)
Consider the cut-off 80 µM. If the recorded CC50 is strictly smaller, the label is 1; if not, the label is 0.

[
  {
    "molecule": "O=S(=O)(O)c1cc(Cl)ccc1Cl",
    "class label": 0
  },
  {
    "molecule": "O=[N+]([O-])c1ccc(Cl)c(Cl)c1Cl",
    "class label": 0
  },
  {
    "molecule": "NC(=O)c1cc([N+](=O)[O-])c(Cl)c([N+](=O)[O-])c1Cl [Compound C2, 2,4-dichloro-3,5-dinitrobenzamide]",
    "class label": 1
  },
  {
    "molecule": "NC(=O)c1cc([N+](=O)[O-])c(Cl)c([N+](=O)[O-])c1 [Compound C5, 4-chloro-3,5-dinitrobenzamide]",
    "class label": 1
  },
  {
    "molecule": "O=C(O)c1cc(Cl)ccc1Cl",
    "class label": 0
  },
  {
    "molecule": "COC(=O)c1cc([N+](=O)[O-])c(Cl)c([N+](=O)[O-])c1Cl",
    "class label": 1
  },
  {
    "molecule": "O=C(O)c1cc([N+](=O)[O-])c(Cl)c([N+](=O)[O-])c1",
    "class label": 0
  },
  {
    "molecule": "O=[N+]([O-])c1ccc(Cl)cc1[N+](=O)[O-] [Compound E1, 1-chloro-3,4-dinitrobenzene]",
    "class label": 1
  },
  {
    "molecule": "COC(=O)c1cc([N+](=O)[O-])cc([N+](=O)[O-])c1Cl",
    "class label": 1
  },
  {
    "molecule": "O=[N+]([O-])c1cc(S(=O)(=O)O)ccc1Cl",
    "class label": 0
  },
  {
    "molecule": "O=[N+]([O-])c1cc(Cl)c(Cl)cc1Cl",
    "class label": 0
  },
  {
    "molecule": "O=C(O)c1cc([N+](=O)[O-])cc([N+](=O)[O-])c1Cl",
    "class label": 0
  },
  {
    "molecule": "O=C(O)c1ccc([N+](=O)[O-])cc1Cl",
    "class label": 0
  },
  {
    "molecule": "O=S(=O)(O)c1ccc(Cl)cc1",
    "class label": 0
  }
]

---

System: MAC15A (murine adenocarcinoma colon)
Test: Anti-tumour activity against MAC15A ascites tumour, survival T/C%
Assay type: in vivo, mice
Conditions: Mus musculus, MAC15A, ip, read-out: T/C%
In this section, each of the compounds is paired with its reported response vs control in vivo at 100 mg/kg.

[
  {
    "compound": "O=[N+]([O-])c1ccc(Cl)c([N+](=O)[O-])c1 [Compound E2, 1-chloro-2,4-dinitrobenzene]",
    "unit descriptor": "%",
    "response vs control in vivo at 100 mg/kg": 188
  },
  {
    "compound": "O=[N+]([O-])c1cc(S(=O)(=O)O)ccc1Cl",
    "unit descriptor": "%",
    "response vs control in vivo at 100 mg/kg": 140
  },
  {
    "compound": "O=S(=O)(O)c1cc(Cl)ccc1Cl",
    "unit descriptor": "%",
    "response vs control in vivo at 100 mg/kg": 212
  },
  {
    "compound": "Nc1ccc([N+](=O)[O-])cc1Cl",
    "unit descriptor": "%",
    "response vs control in vivo at 100 mg/kg": 171
  },
  {
    "compound": "O=C(O)c1cc([N+](=O)[O-])c(Cl)c([N+](=O)[O-])c1Cl",
    "unit descriptor": "%",
    "response vs control in vivo at 100 mg/kg": 243
  },
  {
    "compound": "COc1ccc(Cl)c([N+](=O)[O-])c1",
    "unit descriptor": "%",
    "response vs control in vivo at 100 mg/kg": 100
  },
  {
    "compound": "O=[N+]([O-])c1cc(Cl)cc(Cl)c1[N+](=O)[O-]",
    "unit descriptor": "%",
    "response vs control in vivo at 100 mg/kg": 386
  },
  {
    "compound": "O=C(O)c1cc(Cl)ccc1Cl",
    "unit descriptor": "%",
    "response vs control in vivo at 100 mg/kg": 171
  },
  {
    "compound": "Cc1ccc(S(=O)(=O)O)cc1[N+](=O)[O-]",
    "unit descriptor": "%",
    "response vs control in vivo at 100 mg/kg": 229
  }
]

---

Experiment: in vivo
Details: mouse, ip
In this section, each of the compounds is paired with its reported MTD.

[
  {
    "compound": "NC(=O)c1cc([N+](=O)[O-])c(Cl)c([N+](=O)[O-])c1Cl [Compound C2, 2,4-dichloro-3,5-dinitrobenzamide]",
    "MTD [mg/kg]": 2.5
  },
  {
    "compound": "COC(=O)c1cc([N+](=O)[O-])c(Cl)c([N+](=O)[O-])c1 [Compound C6]",
    "MTD [mg/kg]": 2.5
  },
  {
    "compound": "O=C(O)c1cc([N+](=O)[O-])c(Cl)c([N+](=O)[O-])c1Cl [Compound C1, 2,4-dichloro-3,5-dinitrobenzoic acid]",
    "MTD [mg/kg]": 75
  }
]

---

In this section, each of the molecules is paired with its reported T/C%.
System: MAC15A (murine adenocarcinoma colon)
Assay: Anti-tumour activity against MAC15A ascites tumour, survival T/C%
Type: in vivo, mice
Settings: mouse, in vivo, ip

[
  {
    "molecule": "Nc1c([N+](=O)[O-])cc(Cl)cc1[N+](=O)[O-] [4-chloro-2,6-dinitroaniline]",
    "T/C% [%]": 87
  },
  {
    "molecule": "Nc1ccc([N+](=O)[O-])cc1[N+](=O)[O-] [2,4-dinitroaniline]",
    "T/C% [%]": 100
  },
  {
    "molecule": "O=[N+]([O-])c1cc([N+](=O)[O-])c(Cl)c(S(=O)(=O)O)c1 [Compound S2, 2-chloro-3,5-dinitrobenzenesulfonic acid]",
    "T/C% [%]": 137
  },
  {
    "molecule": "O=C(O)c1cc([N+](=O)[O-])cc([N+](=O)[O-])c1 [3,5-dinitrobenzoic acid]",
    "T/C% [%]": 100
  },
  {
    "molecule": "O=[N+]([O-])c1ccc(S(=O)(=O)O)c([N+](=O)[O-])c1 [Compound S8, 2,4-dinitrobenzenesulfonic acid]",
    "T/C% [%]": 171
  },
  {
    "molecule": "O=[N+]([O-])c1cc(Cl)c(Cl)cc1[N+](=O)[O-] [Compound E3, 1,2-dichloro-4,5-dinitrobenzene]",
    "T/C% [%]": 171
  },
  {
    "molecule": "O=[N+]([O-])c1ccc(Cl)cc1[N+](=O)[O-] [Compound E1, 1-chloro-3,4-dinitrobenzene]",
    "T/C% [%]": 200
  },
  {
    "molecule": "Nc1c(Cl)cc([N+](=O)[O-])cc1[N+](=O)[O-] [6-chloro-2,4-dinitroaniline]",
    "T/C% [%]": 87
  },
  {
    "molecule": "O=[N+]([O-])c1cc(S(=O)(=O)O)cc([N+](=O)[O-])c1Cl [Compound S1, 4-chloro-3,5-dinitrobenzenesulfonic acid]",
    "T/C% [%]": 414
  },
  {
    "molecule": "Nc1c([N+](=O)[O-])cc(S(=O)(=O)O)cc1[N+](=O)[O-] [Compound S3, 4-amino-3,5-dinitrobenzenesulfonic acid]",
    "T/C% [%]": 286
  },
  {
    "molecule": "Nc1c([N+](=O)[O-])cccc1[N+](=O)[O-] [2,6-dinitroaniline]",
    "T/C% [%]": 214
  },
  {
    "molecule": "O=C(O)c1ccc([N+](=O)[O-])cc1[N+](=O)[O-] [2,4-dinitrobenzoic acid]",
    "T/C% [%]": 100
  }
]

---

Assay: Anti-tumour activity against MAC16, tumour weight inhibition
Format: in vivo, murine
Settings: mouse, in vivo; Table 7; ip, per day; corn oil; read-out: maximum tolerated dose

[
  {
    "compound smiles": "O=C(O)c1cc([N+](=O)[O-])c(Cl)c([N+](=O)[O-])c1Cl",
    "MTD at 12 days / mg/kg": 75
  }
]

Attribution: patent EP1016405A2
